Entries and their IC50
Tested on: U937 cells (human monocytic cell line)
test method notes: Pam2CSK4-induced TNF-α secretion inhibition in PMA-differentiated U937 cells
Assay type: cell-based
conditions: U-937, U937 cells differentiated with PMA, read-out: TNF-α production inhibition grade (IC50)

Examples from the recorded data:
>  <compound>
C[C@H](CCC(=O)NC[C@@H](C)S(=O)(=O)O)[C@H]1CC[C@H]2[C@@H]3CC[C@@H]4C[C@H](O)CC[C@]4(C)[C@H]3C[C@H](O)[C@]12C

>  <IC50>
0.5 to 1 µM

$$$$
>  <compound>
C[C@H](CCC(=O)NC[C@H](C)S(=O)(=O)O)[C@H]1CC[C@H]2[C@@H]3CC[C@@H]4CC(=O)CC[C@]4(C)[C@H]3CC[C@]12C

>  <IC50>
≥ 2 µM

$$$$
>  <compound>
C[C@H](CCC(=O)N(CCS(=O)(=O)O)C1CCCCC1)[C@H]1CC[C@H]2[C@@H]3CC[C@@H]4C[C@H](O)CC[C@]4(C)[C@H]3C[C@H](O)[C@]12C

>  <IC50>
≥ 2 µM

$$$$
>  <compound>
C[C@H](CCC(=O)N(CCN(C)C)CCS(=O)(=O)O)[C@H]1CC[C@H]2[C@@H]3[C@H](O)C[C@@H]4C[C@H](O)CC[C@]4(C)[C@H]3C[C@H](O)[C@]12C

>  <IC50>
1 to 2 µM

$$$$

What IC50 value was documented for this compound, C[C@H](CCC(=O)N1CCC[C@H]1CS(=O)(=O)O)[C@H]1CC[C@H]2[C@@H]3CC[C@@H]4C[C@H](O)CC[C@]4(C)[C@H]3C[C@H](O)[C@]12C ?
< 0.5 µM

Cited source for all entries: patent US20240391948A1
